// Sodium-dependent serotonin transporter (Homo sapiens) log10(IC50) records
Hello, just confirming the data are log10 of IC50 with units of nM.

Below are worked cases with known answers.
Lab note: measured log10(IC50) of CN[C@H]1C[C@H](Oc2ccccc2C)c2ccccc21 (relative stereo) was 2.57

// recorded log10(IC50) for CN(C)[C@@H]1C[C@H](Oc2ccc(Cl)cc2)c2ccccc21 (relative stereo) : 1.70

Reported log10(IC50) of CN[C@H]1Cc2ccccc2[C@@H](Oc2ccccc2C)C1 : 3.04

The reported log10(IC50) of the molecule Cc1ccccc1O[C@H]1C[C@H](N(C)C)c2ccccc21 was 2.18

---
response.value for N[C@@H]1C[C@H](Oc2ccc(Cl)cc2)c2ccccc21 (relative stereo) (field: log10(IC50)) = 3.95
